Target: Human TRPV3 (Homo sapiens)
Construct: expressed in transfected cells; host or cells: CHO cells
Sequence (Q8NET8 1-790): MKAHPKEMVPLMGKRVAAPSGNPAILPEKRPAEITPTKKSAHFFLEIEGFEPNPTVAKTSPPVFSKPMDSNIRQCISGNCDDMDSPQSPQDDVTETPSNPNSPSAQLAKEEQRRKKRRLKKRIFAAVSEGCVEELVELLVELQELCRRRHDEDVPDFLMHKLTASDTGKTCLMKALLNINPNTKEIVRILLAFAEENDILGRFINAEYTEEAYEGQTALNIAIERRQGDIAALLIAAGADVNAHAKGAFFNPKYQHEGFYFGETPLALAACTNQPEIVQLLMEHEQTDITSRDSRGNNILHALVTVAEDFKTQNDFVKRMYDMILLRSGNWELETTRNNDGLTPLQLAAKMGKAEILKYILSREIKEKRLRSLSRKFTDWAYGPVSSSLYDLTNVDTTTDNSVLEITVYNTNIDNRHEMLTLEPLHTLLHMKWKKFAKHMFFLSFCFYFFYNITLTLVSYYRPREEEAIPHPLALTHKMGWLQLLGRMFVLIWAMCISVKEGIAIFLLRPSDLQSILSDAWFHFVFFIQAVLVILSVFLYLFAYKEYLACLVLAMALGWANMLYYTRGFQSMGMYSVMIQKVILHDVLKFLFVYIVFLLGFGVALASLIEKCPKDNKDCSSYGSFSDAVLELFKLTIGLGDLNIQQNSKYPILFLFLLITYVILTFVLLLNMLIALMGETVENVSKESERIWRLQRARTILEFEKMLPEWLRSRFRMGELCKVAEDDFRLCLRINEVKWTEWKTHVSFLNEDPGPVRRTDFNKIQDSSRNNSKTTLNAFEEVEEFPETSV
Assay: 45Calcium uptake assay: inhibition of 2-APB induced cellular uptake of radioactive calcium in human TRPV3 expressing CHO cells
Type: cell-based
Settings: 10.0 μM test compound, 2-APB 500 μM, read-out: Percentage inhibition at 10.0 μM
Please respond with reported inhibition at 10 µM for every item in the list.
Give bare numbers, in %.

1. COc1cccc(/C=C/c2oc3ccccc3c(=O)c2-c2ccc(C(F)(F)F)cc2)c1OCC1CC1	75.4

Provide reported inhibition at 10 µM for each item, in the same order as listed.
1. COc1cccc(/C=C/c2oc3cc(F)ccc3c(=O)c2-c2ccc(C#N)cc2)c1OCC(C)C
2. COc1cccc(/C=C/c2oc3ccccc3c(=O)c2-c2ccc(C#N)cc2)c1O
3. COc1cccc(/C=C/c2oc3cc(F)ccc3c(=O)c2-c2ccc(C#N)cc2)c1OCC1CC1

Solution:
1: 96.7; 2: 83.9; 3: 95.6

###

Target: Human TRPV3 (Homo sapiens, UniProt Q8NET8)
Construct: expressed in transfected cells; host or cells: CHO cells
Sequence (Q8NET8 1-790): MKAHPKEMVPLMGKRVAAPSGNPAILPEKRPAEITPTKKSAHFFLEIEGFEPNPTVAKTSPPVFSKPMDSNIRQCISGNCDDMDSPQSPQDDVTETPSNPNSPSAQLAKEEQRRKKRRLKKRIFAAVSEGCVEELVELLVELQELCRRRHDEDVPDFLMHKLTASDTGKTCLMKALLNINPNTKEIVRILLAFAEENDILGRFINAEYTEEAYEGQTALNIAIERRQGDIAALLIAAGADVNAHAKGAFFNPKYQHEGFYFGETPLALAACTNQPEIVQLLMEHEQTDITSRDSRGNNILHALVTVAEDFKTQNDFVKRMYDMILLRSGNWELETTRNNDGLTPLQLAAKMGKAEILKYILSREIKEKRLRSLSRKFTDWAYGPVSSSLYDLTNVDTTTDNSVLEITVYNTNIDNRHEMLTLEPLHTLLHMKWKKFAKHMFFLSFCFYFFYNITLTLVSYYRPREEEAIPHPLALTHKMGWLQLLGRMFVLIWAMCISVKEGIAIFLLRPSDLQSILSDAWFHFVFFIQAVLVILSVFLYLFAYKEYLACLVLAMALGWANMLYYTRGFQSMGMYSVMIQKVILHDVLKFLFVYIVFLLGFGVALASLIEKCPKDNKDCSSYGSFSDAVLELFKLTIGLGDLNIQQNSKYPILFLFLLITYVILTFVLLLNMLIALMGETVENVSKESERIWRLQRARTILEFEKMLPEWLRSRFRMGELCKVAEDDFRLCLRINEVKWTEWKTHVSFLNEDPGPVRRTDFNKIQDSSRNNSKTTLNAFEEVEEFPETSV
Test: 45Calcium uptake assay: inhibition of 2-APB induced cellular uptake of radioactive calcium in human TRPV3 expressing CHO cells
Assay type: cell-based
Details: 10.0 μM test compound, 2-APB 500 μM, read-out: Percentage inhibition at 10.0 μM
Exercise: state measured inhibition at 10 µM for each of the compounds provided.
Give bare numbers, in %.

Your task in this section: give inhibition at 10 µM for each listed record.
1. COc1cccc(/C=C/c2oc3ccc(F)cc3c(=O)c2-c2ccc(C#N)cc2)c1OC1CCCC1 [Example 16]
2. COc1cccc(/C=C/c2oc3ccc(F)cc3c(=O)c2-c2ccc(C#N)cc2)c1OCC1CCC1 [Example 17]

Solution:
[74.4, 89.8]

Kindly give each listed record's inhibition at 10 µM.
1. COc1cccc(/C=C/c2oc3ccccc3c(=O)c2-c2ccc(C#N)cc2)c1OCCC(F)(F)F [Example 9]
2. COc1cccc(/C=C/c2oc3cc(F)ccc3c(=O)c2-c2ccc(C#N)cc2)c1OCCC(F)(F)F [Example 14]

Solution:
1: 98; 2: 98.7
